subject-of-test: recombinant human androgen receptor (hAR) (Homo sapiens, UniProt P10275)
Sequence (P10275 whole entry): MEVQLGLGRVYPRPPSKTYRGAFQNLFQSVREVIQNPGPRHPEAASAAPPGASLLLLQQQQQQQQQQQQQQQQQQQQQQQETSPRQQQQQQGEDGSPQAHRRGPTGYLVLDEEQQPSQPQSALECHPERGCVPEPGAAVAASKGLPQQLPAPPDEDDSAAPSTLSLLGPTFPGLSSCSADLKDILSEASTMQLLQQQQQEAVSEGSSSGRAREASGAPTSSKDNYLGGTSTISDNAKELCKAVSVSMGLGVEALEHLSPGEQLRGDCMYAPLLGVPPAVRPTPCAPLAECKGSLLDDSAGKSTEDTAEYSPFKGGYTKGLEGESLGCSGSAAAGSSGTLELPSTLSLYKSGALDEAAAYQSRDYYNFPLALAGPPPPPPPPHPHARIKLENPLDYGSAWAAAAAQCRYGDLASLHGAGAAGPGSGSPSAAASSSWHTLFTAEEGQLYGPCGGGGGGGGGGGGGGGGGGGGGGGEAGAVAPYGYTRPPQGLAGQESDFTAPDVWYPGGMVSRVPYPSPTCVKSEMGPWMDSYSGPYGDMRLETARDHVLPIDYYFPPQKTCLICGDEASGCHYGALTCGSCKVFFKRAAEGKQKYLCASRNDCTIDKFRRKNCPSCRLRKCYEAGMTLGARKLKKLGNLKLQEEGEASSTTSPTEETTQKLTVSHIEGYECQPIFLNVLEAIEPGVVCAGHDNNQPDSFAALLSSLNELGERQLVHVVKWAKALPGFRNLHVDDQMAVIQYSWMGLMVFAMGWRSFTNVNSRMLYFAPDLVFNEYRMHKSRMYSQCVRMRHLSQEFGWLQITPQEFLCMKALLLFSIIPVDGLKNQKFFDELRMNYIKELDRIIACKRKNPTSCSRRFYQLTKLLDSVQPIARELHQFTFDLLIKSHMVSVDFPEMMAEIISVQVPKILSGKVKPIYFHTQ
assay-info: Human androgen receptor binding analysis (3H-DHT competitive binding)
pIC50: −log10 of the molar value.
Quick rule: pIC50 of at least 8 means YES, below that means NO.

{"compound": "CCC1CCCCN1c1ccc(C#N)c(C(F)(F)F)c1 (stereo not drawn) [Example 6]", "subject-of-test": "recombinant human androgen receptor (hAR) (Homo sapiens, UniProt P10275)", "qualitative-label": "YES"}
{"compound": "CCCN(c1ccc(C#N)c(C#N)c1)C(C)CC (stereo not drawn) [Example 18]", "subject-of-test": "recombinant human androgen receptor (hAR) (Homo sapiens, UniProt P10275)", "qualitative-label": "YES"}
{"compound": "CC[C@@H](C)N(CC)c1ccc(C#N)c(C(F)(F)F)c1 [Example 12]", "subject-of-test": "recombinant human androgen receptor (hAR) (Homo sapiens, UniProt P10275)", "qualitative-label": "YES"}
{"compound": "CC1CCCCN1c1ccc(C#N)c(C(F)(F)F)c1 (stereo not drawn) [Example 34]", "subject-of-test": "recombinant human androgen receptor (hAR) (Homo sapiens, UniProt P10275)", "qualitative-label": "NO"}
{"compound": "N#Cc1ccc(N2CCCCC2CCO)cc1C(F)(F)F (stereo not drawn) [Example 36]", "subject-of-test": "recombinant human androgen receptor (hAR) (Homo sapiens, UniProt P10275)", "qualitative-label": "NO"}
{"compound": "CC(C)N(C)c1ccc(C#N)c(Cl)c1 [Example 23]", "subject-of-test": "recombinant human androgen receptor (hAR) (Homo sapiens, UniProt P10275)", "qualitative-label": "YES"}
{"compound": "CCCCN(CCC)c1ccc(C#N)c(C(F)(F)F)c1 [Example 39]", "subject-of-test": "recombinant human androgen receptor (hAR) (Homo sapiens, UniProt P10275)", "qualitative-label": "YES"}
{"compound": "CCN(c1ccc(C#N)c(Cl)c1)C(C)C [Example 48]", "subject-of-test": "recombinant human androgen receptor (hAR) (Homo sapiens, UniProt P10275)", "qualitative-label": "NO"}
{"compound": "CCCN(CCC)c1ccc(C#N)c(C(F)(F)F)c1 [Example 15]", "subject-of-test": "recombinant human androgen receptor (hAR) (Homo sapiens, UniProt P10275)", "qualitative-label": "YES"}
{"compound": "CCN(CC)c1ccc(C#N)c(C(F)(F)F)c1 [Example 20]", "subject-of-test": "recombinant human androgen receptor (hAR) (Homo sapiens, UniProt P10275)", "qualitative-label": "YES"}
{"compound": "CC[C@H]1CCCCN1c1ccc(C#N)c(C(F)(F)F)c1 [Example 1]", "subject-of-test": "recombinant human androgen receptor (hAR) (Homo sapiens, UniProt P10275)", "qualitative-label": "YES"}
{"compound": "N#Cc1ccc(N2CCCCCC2)cc1C#N [Example 52, 4-Azepan-1-yl-phthalonitrile]", "subject-of-test": "recombinant human androgen receptor (hAR) (Homo sapiens, UniProt P10275)", "qualitative-label": "YES"}
{"compound": "CCCN(CCC)c1cc(F)c(C#N)c(F)c1 [Example 53]", "subject-of-test": "recombinant human androgen receptor (hAR) (Homo sapiens, UniProt P10275)", "qualitative-label": "YES"}
{"compound": "CC[C@@H](C)N(C)c1ccc(C#N)c(C#N)c1 [Example 13]", "subject-of-test": "recombinant human androgen receptor (hAR) (Homo sapiens, UniProt P10275)", "qualitative-label": "YES"}

These entries and their values trace back to patent US20080045504A1.
